# assay.name: Acute toxicity in the mouse (LD50)
# experimental.parameters: in vivo, iv, read-out: i.v. LD50

- smiles: "CCN(CC)c1nc(N(CCO)CCOC)nc2c(N(CC)CC)nc(N(CCO)CCOC)nc12"
  LD50 / mg/kg: 133

These data points were gathered from patent EP0169405A2.
